Every entry's value here was drawn from patent EP3263567A1.

Protocol: Solubility of compound A
Assay type: physicochemical
Measurement context: aqueous media, simulated gastric fluid; pH 2.0
Outcome measure: solubility (µg/mL)

{"Smiles data": "O=C1NCc2c1ncnc2-c1cc(-c2cc(Cl)cc(OC(F)(F)F)c2)n(-c2cccnc2)n1", "Outcome measure": "solubility", "Unit spec": "µg/mL", "Meas value": 400}

###

Protocol: pKa of compound A
Format: physicochemical

{"Compound": "O=C1NCc2c1ncnc2-c1cc(-c2cc(Cl)cc(OC(F)(F)F)c2)n(-c2cccnc2)n1 [Compound A]", "pKa": 2.3}

###

Tgt: Nav1.5 (Homo sapiens)
Construct: selection with Geneticin and Puromycin
Sequence (Q14524 whole entry): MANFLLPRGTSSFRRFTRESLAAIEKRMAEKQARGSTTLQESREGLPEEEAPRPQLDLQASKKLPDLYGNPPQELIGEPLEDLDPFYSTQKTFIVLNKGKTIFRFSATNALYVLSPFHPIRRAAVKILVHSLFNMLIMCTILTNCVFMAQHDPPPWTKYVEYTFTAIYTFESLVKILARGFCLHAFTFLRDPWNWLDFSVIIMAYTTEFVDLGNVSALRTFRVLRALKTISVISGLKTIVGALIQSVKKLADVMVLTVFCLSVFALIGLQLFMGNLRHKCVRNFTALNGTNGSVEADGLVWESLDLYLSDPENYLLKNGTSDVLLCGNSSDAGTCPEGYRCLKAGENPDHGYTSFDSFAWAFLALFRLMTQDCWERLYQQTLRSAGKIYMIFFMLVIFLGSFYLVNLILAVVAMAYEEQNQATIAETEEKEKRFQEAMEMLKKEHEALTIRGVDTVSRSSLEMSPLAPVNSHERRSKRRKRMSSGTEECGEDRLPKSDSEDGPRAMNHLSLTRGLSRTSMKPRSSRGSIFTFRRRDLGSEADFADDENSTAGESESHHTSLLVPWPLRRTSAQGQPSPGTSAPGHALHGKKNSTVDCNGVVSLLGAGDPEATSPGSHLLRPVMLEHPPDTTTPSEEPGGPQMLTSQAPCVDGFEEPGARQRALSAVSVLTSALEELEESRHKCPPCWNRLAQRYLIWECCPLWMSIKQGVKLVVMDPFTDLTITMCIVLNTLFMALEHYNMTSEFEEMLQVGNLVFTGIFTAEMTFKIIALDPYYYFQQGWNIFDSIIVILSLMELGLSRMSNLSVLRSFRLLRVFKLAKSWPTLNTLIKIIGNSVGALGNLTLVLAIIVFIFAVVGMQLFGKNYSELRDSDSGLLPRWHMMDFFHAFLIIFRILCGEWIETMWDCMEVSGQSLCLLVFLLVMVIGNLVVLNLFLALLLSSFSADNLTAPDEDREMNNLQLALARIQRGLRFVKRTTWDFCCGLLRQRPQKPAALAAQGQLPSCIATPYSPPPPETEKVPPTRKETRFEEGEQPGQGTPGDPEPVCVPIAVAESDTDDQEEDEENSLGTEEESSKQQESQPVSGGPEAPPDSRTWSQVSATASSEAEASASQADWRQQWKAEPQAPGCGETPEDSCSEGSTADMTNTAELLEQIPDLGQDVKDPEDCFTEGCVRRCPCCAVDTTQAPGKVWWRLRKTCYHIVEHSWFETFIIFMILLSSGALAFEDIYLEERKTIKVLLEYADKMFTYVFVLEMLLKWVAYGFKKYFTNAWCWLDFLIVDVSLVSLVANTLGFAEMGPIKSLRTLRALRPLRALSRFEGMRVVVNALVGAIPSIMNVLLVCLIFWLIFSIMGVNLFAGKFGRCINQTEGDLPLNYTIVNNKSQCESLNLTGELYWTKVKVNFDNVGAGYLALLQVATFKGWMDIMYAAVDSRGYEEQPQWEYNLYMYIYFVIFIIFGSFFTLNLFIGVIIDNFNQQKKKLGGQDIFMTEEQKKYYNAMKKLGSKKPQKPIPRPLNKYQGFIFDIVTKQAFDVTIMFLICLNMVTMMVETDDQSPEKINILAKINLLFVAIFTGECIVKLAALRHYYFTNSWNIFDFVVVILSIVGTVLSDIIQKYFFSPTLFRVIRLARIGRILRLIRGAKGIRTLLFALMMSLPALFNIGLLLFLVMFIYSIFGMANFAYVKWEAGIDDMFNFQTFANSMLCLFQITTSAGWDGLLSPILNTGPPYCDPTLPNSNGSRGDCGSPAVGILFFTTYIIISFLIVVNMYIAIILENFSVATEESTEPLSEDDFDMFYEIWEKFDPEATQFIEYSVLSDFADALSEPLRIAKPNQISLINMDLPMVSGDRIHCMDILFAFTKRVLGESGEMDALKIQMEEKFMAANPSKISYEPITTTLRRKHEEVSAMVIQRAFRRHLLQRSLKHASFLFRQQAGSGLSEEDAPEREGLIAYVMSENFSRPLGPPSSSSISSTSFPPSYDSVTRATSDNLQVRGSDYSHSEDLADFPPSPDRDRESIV
Protocol: Whole-cell patch-clamp, Nav1.5 currents in stably transfected CHO cells
Measurement context: highest concentration tested 6,000 nM; read-out: IC50 (Nav1.5, fast inactivated state)

{"Compound": "O=C1NCc2c1ncnc2-c1cc(-c2cc(Cl)cc(OC(F)(F)F)c2)n(-c2cccnc2)n1 [Compound A]", "IC50": "> 6 µM"}

###

Tgt: UniProt:Q9Y3Q4
Sequence (Q9Y3Q4 1-1203): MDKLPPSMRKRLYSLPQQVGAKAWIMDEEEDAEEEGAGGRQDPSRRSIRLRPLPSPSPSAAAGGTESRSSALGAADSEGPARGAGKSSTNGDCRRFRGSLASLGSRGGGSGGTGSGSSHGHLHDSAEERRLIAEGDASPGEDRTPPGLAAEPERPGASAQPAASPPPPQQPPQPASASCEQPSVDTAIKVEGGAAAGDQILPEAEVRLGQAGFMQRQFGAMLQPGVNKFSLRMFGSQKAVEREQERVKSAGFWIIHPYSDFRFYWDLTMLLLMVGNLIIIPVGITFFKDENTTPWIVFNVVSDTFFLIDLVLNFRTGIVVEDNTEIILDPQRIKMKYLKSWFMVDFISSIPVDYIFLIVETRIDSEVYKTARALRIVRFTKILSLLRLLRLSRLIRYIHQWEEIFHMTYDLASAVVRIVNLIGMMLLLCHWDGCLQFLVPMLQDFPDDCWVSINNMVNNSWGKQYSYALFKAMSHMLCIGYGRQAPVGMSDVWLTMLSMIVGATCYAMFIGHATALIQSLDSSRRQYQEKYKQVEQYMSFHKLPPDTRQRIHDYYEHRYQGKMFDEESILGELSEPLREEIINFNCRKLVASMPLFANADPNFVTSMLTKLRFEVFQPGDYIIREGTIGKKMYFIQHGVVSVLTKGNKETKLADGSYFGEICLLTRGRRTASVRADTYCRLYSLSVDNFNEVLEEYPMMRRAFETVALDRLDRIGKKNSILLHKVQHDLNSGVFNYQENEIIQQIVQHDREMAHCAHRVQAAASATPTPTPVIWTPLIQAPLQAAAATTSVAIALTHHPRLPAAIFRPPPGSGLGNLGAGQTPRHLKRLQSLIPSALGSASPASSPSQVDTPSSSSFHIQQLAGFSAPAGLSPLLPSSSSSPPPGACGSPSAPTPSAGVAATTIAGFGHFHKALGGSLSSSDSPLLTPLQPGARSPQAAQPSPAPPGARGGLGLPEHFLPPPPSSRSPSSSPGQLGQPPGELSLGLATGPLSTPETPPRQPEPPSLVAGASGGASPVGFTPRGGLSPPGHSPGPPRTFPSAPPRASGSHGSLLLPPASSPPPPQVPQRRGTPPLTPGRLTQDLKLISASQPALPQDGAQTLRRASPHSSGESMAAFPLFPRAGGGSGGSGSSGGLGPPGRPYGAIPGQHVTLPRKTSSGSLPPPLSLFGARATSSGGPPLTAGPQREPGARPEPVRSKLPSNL
Protocol: Whole-cell patch-clamp, HCN4 currents in stably transfected CHO cells
Format: cell-based
Parameters: expressed in transfected cells; host or cells: CHO (ATCC CCL-61), stably transfected; selection with Hygromycin and Geneticin
Measurement context: stably transfected CHO cells; 200, 600, 2000, 6000 nM tested

{"Compound": "O=C1NCc2c1ncnc2-c1cc(-c2cc(Cl)cc(OC(F)(F)F)c2)n(-c2cccnc2)n1 [Compound A]", "Unit spec": "nM", "IC50": 879}

###

Protocol: in vivo
Measurement context: both, Beagle, dog, po, 30 mg/kg
Outcome measure: AUC(0-inf) (µg·h/mL)

{"Smiles data": "O=C1NCc2c1ncnc2-c1cc(-c2cc(Cl)cc(OC(F)(F)F)c2)n(-c2cccnc2)n1", "Meas value": 297}

###

Tgt: human HCN4 currents (Homo sapiens, UniProt Q9Y3Q4)
Construct: CHO cells transiently expressing the HCN4 channel
Sequence (Q9Y3Q4 1-1203): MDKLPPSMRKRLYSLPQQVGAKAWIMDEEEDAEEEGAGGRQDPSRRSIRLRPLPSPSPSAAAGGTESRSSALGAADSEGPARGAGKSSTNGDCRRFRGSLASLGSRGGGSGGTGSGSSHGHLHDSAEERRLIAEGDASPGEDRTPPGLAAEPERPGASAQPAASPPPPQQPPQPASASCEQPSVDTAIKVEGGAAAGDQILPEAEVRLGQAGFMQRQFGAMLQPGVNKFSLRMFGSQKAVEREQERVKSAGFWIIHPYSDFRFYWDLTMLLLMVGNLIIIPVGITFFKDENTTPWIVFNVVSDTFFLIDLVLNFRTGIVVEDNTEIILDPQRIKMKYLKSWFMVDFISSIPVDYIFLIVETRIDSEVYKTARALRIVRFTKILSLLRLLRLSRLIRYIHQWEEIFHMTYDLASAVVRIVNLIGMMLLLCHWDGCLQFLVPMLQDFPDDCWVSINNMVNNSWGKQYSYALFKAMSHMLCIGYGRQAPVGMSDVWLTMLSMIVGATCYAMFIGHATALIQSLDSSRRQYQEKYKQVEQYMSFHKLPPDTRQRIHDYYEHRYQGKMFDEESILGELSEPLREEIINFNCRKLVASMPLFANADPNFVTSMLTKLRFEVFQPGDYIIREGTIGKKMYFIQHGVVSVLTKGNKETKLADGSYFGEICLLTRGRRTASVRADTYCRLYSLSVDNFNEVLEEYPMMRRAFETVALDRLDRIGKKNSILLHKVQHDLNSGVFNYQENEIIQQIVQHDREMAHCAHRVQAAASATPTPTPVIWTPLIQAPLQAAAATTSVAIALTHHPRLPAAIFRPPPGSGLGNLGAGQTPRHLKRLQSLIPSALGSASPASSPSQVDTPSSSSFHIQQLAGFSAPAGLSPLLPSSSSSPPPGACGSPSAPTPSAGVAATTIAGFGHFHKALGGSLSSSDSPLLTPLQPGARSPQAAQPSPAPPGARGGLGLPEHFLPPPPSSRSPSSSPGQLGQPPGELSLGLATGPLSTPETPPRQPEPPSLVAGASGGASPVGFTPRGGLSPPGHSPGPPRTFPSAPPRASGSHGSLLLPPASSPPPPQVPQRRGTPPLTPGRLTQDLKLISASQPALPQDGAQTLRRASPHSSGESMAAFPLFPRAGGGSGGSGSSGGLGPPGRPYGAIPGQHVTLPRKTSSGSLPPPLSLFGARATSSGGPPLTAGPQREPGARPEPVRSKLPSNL
Protocol: Whole-cell patch-clamp, HCN4 steady state currents in transiently transfected CHO cells
Measurement context: CHO cells transiently expressing HCN4, steady state current at -120 mV, n=3; read-out: IC50 (inhibition of HCN4 currents)
pIC50: −log10 of the molar value.
Recorded pIC50 values for a group of molecules are listed next.

{"Smiles data": "O=C1NCc2c1ccnc2-c1cc(-c2cc(Cl)cc(OC(F)(F)F)c2)n(-c2cccnc2)n1", "pIC50": "6.24 to 7.52"}
{"Smiles data": "O=C1NCc2c1ncnc2-c1cc(-c2cc(Cl)cc(OC(F)(F)F)c2)n(-c2cccnc2)n1", "pIC50": "6.24 to 7.52"}
{"Smiles data": "O=C1CN(C(=O)c2cc(-c3cc(Cl)cc(OC(F)(F)F)c3)n(-c3cccnc3)n2)CN1", "pIC50": "6.24 to 7.52"}

###

Tgt: human HCN4 currents (Homo sapiens, UniProt Q9Y3Q4)
Construct: CHO cells transiently expressing the HCN4 channel
Protocol: Whole-cell patch-clamp, HCN4 steady state currents in transiently transfected CHO cells
Measurement context: CHO cells transiently expressing HCN4, steady state current at -120 mV, n=3; read-out: IC50 (inhibition of HCN4 currents)

{"Compound": "N#Cc1cc(-n2nc(-c3ncnc4c3CNC4=O)cc2-c2cc(Cl)cc(OC(F)(F)F)c2)ccc1F", "IC50": "30 to 580 nM"}
{"Compound": "NC1=C(C(=O)c2cc(-c3cc(Cl)cc(OC(F)(F)F)c3)n(-c3cccnc3)n2)CNC1=O", "IC50": "30 to 580 nM"}
{"Compound": "COc1cc2c(cc1OC)CC(=O)N(CCCN(C)C[C@H]1Cc3cc(OC)c(OC)cc31)CC2 [Ivabradine, reference compound]", "IC50": "4460 nM"}
{"Compound": "Cc1nc2c(c(-c3cc(-c4cc(Cl)cc(OC(F)(F)F)c4)n(-c4cccnc4)n3)n1)CNC2=O", "IC50": "30 to 580 nM"}
